assay: in vivo; details: male, NODSCID 1L2RγKO, mouse, iv, total radioactivity, Testes uptake
recorded metric: tissue uptake at 1 h (%ID/g)
Give the value in %ID/g but do not write %ID/g after it.

compound: O=C(O)CN1CCN(CC(=O)O)CCN(CC(=O)NC[C@H]2CC[C@H](C(=O)N[C@@H](Cc3c4ccccc4cc4ccccc34)C(=O)NCCCC[C@H](NC(=O)N[C@@H](C[C@@H](F)C(=O)O)C(=O)O)C(=O)O)CC2)CCN(CC(=O)O)CC1 [68Ga-HTK04033, metal not drawn]
tissue uptake at 1 h / %ID/g: 0.17

Now look at this one.
**Query** Find the recorded tissue uptake at 1 h belonging to O=C(O)CCC[C@H](NC(=O)N[C@@H](CCCCNC(=O)[C@H](Cc1c2ccccc2cc2ccccc12)NC(=O)Cc1cccc(CNC(=O)CN2CCN(CC(=O)O)CCN(CC(=O)O)CCN(CC(=O)O)CC2)c1)C(=O)O)C(=O)O [68Ga-HTK04037, metal not drawn] and report it.
**Result** 0.18
